targetSystem: Cdk6/CyclinD3 (Homo sapiens)
Sequence (Q00534 whole entry): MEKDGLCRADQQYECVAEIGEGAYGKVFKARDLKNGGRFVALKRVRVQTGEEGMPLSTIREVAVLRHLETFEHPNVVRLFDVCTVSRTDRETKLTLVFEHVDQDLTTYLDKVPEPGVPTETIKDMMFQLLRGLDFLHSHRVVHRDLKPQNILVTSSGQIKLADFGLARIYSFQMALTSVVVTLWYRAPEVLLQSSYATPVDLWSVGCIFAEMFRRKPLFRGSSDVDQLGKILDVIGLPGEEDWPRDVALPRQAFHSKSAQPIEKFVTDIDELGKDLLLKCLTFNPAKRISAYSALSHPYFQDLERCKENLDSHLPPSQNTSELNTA
Sequence (P30281 whole entry partner): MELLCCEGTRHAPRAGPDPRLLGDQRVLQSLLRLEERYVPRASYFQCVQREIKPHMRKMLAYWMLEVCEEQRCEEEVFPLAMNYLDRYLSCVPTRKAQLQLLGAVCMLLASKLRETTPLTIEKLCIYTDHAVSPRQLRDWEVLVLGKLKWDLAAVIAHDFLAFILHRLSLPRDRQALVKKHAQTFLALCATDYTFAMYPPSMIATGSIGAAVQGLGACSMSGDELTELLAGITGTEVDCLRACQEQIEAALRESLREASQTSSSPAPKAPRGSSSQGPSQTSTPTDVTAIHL
methodDescription: Cdk6 kinase inhibition assay (33P-ATP filter plate, Rb substrate)
conditions: recombinant Cdk6/CyclinD3, Rb substrate, 25 μM ATP, 1 hour room temperature; read-out: Cdk 6 IC50
This section presents compounds with their documented IC50 values.
Answer with a number only, understood to be in µM.

compound | unitOfMeasurement | IC50
c1cnc2c(c1)OC1(CCOCC1)c1nc(Nc3ccc(N4CCNCC4)cc3)ncc1-2 [Example 25] | µM | 0.54
c1ccc2c(c1)OC1(CCCC1)c1nc(Nc3ccc(N4CCNCC4)cn3)ncc1-2 [Example 15] | µM | 0.0135
CC1(C)C=CC2(CC1)c1cnccc1-c1cnc(Nc3ccc(N4CCNCC4)cc3)nc12 (racemic) [Example 44] | µM | 0.027
CC1(C)CCC2(CC1)Oc1ncccc1-c1cnc(Nc3ccc(N4CCNCC4)cn3)nc12 [Example 27] | µM | 0.068
CC1CC(O)C2(CC=CC2)c2nc(Nc3ccc(N4CCNCC4)cn3)ncc21 (centres unmarked) [Example 71] | µM | 0.51

IN: Can you look up IC50 on Cdk6/CyclinD3 (Homo sapiens) for c1cnc2c(c1)-c1cnc(Nc3ccc(N4CCNCC4)cc3)nc1C1(CCCCC1)O2 [Example 29] ?
OUT: 0.0011

IN: Another compound: O=C(c1csc(Nc2ncc3c(n2)C2(CCCCC2)c2cnccc2-3)n1)N1CCNCC1 [Example 48]
OUT: 0.266

IN: Same read-out for C[C@@H]1CC(=O)C2(CC=CC2)c2nc(Nc3ccc(N4CCNCC4)cn3)ncc21 [Example 74] ?
OUT: 1.8

* * *

The entries below come with measured IC50 values attached.
targetSystem: Cdk4/CyclinD1 (Homo sapiens, UniProt P11802)
Sequence (P11802 whole entry): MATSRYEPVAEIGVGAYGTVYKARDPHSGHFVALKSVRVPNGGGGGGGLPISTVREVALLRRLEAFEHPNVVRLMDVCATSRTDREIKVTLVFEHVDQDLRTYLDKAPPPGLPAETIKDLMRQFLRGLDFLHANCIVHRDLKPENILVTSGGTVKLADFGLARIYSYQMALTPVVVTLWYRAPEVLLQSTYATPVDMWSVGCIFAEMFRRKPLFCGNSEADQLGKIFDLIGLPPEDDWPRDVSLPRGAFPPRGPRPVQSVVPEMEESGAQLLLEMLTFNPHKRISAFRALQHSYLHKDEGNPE
Sequence (P24385 whole entry partner): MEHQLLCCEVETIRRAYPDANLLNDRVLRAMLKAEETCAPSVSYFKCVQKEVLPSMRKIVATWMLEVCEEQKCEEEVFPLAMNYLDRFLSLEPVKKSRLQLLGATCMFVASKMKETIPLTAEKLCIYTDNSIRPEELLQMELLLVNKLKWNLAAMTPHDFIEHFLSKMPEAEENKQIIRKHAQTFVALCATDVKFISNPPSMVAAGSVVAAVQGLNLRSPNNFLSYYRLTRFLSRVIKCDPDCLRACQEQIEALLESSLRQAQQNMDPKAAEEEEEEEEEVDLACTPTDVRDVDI
methodDescription: Cdk4 kinase inhibition assay (33P-ATP filter plate, Rb substrate)
conditions: recombinant Cdk4/CyclinD1, Rb substrate, 25 μM ATP, 1 hour room temperature; read-out: Cdk 4 IC50
The response must be a number in nM with no trailing unit.

molSmiles | IC50 [nM]
CN1CCN(c2ccc(Nc3ncc4c(n3)C3(CCCCC3)Oc3ccccc3-4)cc2)CC1 | 14.2

IN: Field request: IC50 | item: CC1=CC(=O)C2(CCCC2)c2nc(Nc3ccc(N4CCNCC4)cn3)ncc21
OUT: 2500

IN: Cool, now CC1(C)CCC2(CC1)Oc1ncccc1-c1cnc(Nc3ccc(N4CCNCC4)cn3)nc12
OUT: 74

IN: Same question, CS(=O)(=O)c1cccc2c1OC1(CCCCC1)c1nc(Nc3ccc(N4CCNCC4)cn3)ncc1-2 this time
OUT: 2850

IN: Another molecule: c1cc2c(cn1)C1(CCOCC1)c1nc(Nc3ccc(N4CCNCC4)cn3)ncc1-2
OUT: 410

IN: Likewise for O=C1NC2(CCCCC2)c2nc(Nc3ccc(N4CCNCC4)cc3)ncc21 ?
OUT: 1140

IN: And c1cnc2c(c1)OC1(CCOCC1)c1nc(Nc3ccc(N4CCNCC4)cc3)ncc1-2 ?
OUT: 330

IN: Another: C[C@@H]1CC(=O)C2(CC=CC2)c2nc(Nc3ccc(N4CCNCC4)cn3)ncc21
OUT: 3500

* * *

targetSystem: Cdk4/CyclinD1 (Homo sapiens, UniProt P11802)
methodDescription: Cdk4 kinase inhibition assay (33P-ATP filter plate, Rb substrate)
conditions: recombinant Cdk4/CyclinD1, Rb substrate, 25 μM ATP, 1 hour room temperature; read-out: Cdk 4 IC50
recordedMetric: IC50
Write the numeric value and append its unit.

Sample answers from the record:
molecule | testValue
c1ccc2c(c1)OC1(CCCC1)c1nc(Nc3ccc(N4CCNCC4)cn3)ncc1-2 [Example 15] | 84 nM
c1cnc2c(c1)-c1cnc(Nc3ccc(N4CCNCC4)cc3)nc1C1(CCCCC1)O2 [Example 29] | 5.9 nM
O=C(c1csc(Nc2ncc3c(n2)C2(CCCCC2)c2cnccc2-3)n1)N1CCNCC1 [Example 48] | 44 nM

Then there is this molecule:
IN: Any idea what IC50 was measured for CN(C)C1CCN(c2ccc(Nc3ncc4c(n3)C3(C=CC(C)(C)CC3)c3cnccc3-4)nn2)CC1 (racemic) [Example 76] ?
OUT: 14.6 nM
